studySystem: T1, full length mouse DLL4 on overexpressing CHO or HEK293 cells (mouse, UniProt Q9JI71 27-686)
T1 construct: whole, on cells; also called CHO-mDLL4; mDLL4
T1 sequence (Q9JI71 27-686): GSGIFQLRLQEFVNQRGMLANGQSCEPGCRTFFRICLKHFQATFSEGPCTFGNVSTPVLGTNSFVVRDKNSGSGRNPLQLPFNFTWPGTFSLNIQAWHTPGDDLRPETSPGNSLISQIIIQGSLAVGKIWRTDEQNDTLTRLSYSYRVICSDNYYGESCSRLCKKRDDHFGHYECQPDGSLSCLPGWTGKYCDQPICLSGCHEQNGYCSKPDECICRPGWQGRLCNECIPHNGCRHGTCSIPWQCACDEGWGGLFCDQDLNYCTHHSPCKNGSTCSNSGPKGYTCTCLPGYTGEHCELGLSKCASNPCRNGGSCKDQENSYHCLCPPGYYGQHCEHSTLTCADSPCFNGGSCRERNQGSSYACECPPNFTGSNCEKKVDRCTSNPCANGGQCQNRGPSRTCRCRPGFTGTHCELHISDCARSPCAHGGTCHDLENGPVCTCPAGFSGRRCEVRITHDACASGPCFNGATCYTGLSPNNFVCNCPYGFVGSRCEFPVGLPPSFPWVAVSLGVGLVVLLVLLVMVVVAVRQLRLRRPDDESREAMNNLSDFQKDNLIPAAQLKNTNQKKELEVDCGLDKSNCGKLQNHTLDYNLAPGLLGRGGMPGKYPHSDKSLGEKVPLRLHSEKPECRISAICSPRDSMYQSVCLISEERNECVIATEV
testSummary: FMAT, hNotch1/Fc on CHO-mDLL4, periplasmic extract
observable: FMAT mDLL4 % inhibition (%)

• DLLBII58A11 (VHH, tested as periplasmic extract; not shown: C-terminal c-myc tag and His6 tag) VHH: EVQLVESGGGLVQAGGSLRLSCTTSERTVSRYSMGWFRQAPGKEREAVATISWSGDSTYYADSVKGRFTISRDNTKNTLYLQIDSLKPEDTAVYYCVAKPNLKYGSYWPPRGYDYWGQGTQVTVSS = 73
• DLLBII107C03 (VHH, tested as periplasmic extract; also called DLLBII107C3; not shown: C-terminal c-myc tag and His6 tag) VHH: EVQLVESGGGLVQPGGSLRLSCEVSGSIGSVSDMRWYRQAPGLQYELVARITSGSITDYSDSVKGRFTISRDNAKNTVYLQMNSLKPEDTAVYYCNADVQHSAWLKPLTYWGQGTQVTVSS = 80
